Hi there, I'd appreciate the recorded IC50 for every entry that follows.
- Measured on: human IDO1 (Homo sapiens)
- Sequence (P14902 whole entry): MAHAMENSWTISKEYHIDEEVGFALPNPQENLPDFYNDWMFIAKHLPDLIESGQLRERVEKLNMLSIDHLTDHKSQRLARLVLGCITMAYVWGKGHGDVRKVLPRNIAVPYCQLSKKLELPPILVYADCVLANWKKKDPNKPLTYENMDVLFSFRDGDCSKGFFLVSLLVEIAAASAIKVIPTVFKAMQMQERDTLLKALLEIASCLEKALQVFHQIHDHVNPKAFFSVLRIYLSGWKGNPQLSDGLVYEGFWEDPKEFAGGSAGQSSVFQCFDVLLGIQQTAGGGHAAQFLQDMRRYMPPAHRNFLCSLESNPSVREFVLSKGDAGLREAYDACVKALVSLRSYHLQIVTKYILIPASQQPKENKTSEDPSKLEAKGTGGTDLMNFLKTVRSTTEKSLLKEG
- Assay explanation: Human IDO-1 inhibitory activity in Hela cells (interferon-gamma stimulated)
- Assay type: cell-based
- Set-up: endogenous in cells; host or cells: HeLa cells stimulated with interferon-gamma
- Cond: 18 hours, unstimulated wells = 100% inhibition

Task item: Find IC50 (human IDO1 (Homo sapiens)) for the entry CCN(c1ccc([C@H](COC)CC(=O)O)cc1Nc1ccc(C#N)c(Cl)c1)C1CCOCC1 (single isomer, unassigned)
Reply: < 50 nM

Task item: Give human IDO1 (Homo sapiens) IC50 for CCCN(c1ccc(C(COC)CC(=O)O)cc1Nc1ccc(C#N)cc1)C1CCS(=O)(=O)CC1 (single isomer, unassigned) [Example 182 Enantiomer 1]
Reply: < 50 nM

Task item: Enter reported IC50 observed with human IDO1 (Homo sapiens) for CCN(c1cc(F)c(C(COC)CC(=O)O)cc1Nc1ccc(C#N)c(F)c1)C1CCOCC1 (single isomer, unassigned)
Reply: < 5 nM

Task item: Form field: IC50 recorded for CCN(c1ccc([C@H](COC)CC(=O)O)cc1Nc1ccc(C#N)c(OCC(F)F)c1)C1CCOCC1 (single isomer, unassigned) with human IDO1 (Homo sapiens) (enter value)
Reply: < 50 nM

Task item: Lookup: IC50 / human IDO1 (Homo sapiens) / CCC(CC(=O)O)c1ccc(N(CCOC)C2CCOCC2)c(Nc2ccc(Cl)cc2)c1 (single isomer, unassigned) [Example 1257 E2]
Reply: < 5 nM

Task item: # value lookup — system human IDO1 (Homo sapiens), readout IC50, item COCC(CC(=O)O)c1ccc(N2C[C@@H](C)O[C@@H](C)C2)c(NC(=O)Nc2ccc(C#N)cc2)c1 (single isomer, unassigned) [Example 605 Diastereomer 2]
Reply: > 50 nM

Task item: Lookup: IC50 / human IDO1 (Homo sapiens) / CCN(c1ccc([C@H](COC)CC(=O)O)cc1Nc1ccc(S(=O)(=O)CC)cc1)C1CCOCC1 (single isomer, unassigned)
Reply: > 50 nM

Task item: Request - read-out IC50 | tested on human IDO1 (Homo sapiens) | compound COC[C@H](CC(=O)O)c1ccc(N2CCOc3ccccc32)c(Nc2ccc(C#N)cc2)c1 (single isomer, unassigned)
Reply: > 50 nM

Task item: Report IC50 for COCC(CC(=O)O)c1ccc(N2CCOC(C)C2)c(NC(=O)Nc2ccc(Cl)cc2F)c1 (single isomer, unassigned) [Example 1314 D2] tested on human IDO1 (Homo sapiens).
Reply: > 50 nM

Task item: What value of IC50 on human IDO1 (Homo sapiens) does CCN(c1ccc([C@H](COC)CC(=O)O)cc1Nc1ccc(C#N)c(C)n1)C1CCOCC1 (single isomer, unassigned) have?
Reply: > 50 nM

Task item: Request: IC50, test system human IDO1 (Homo sapiens), entry CCC(CC(=O)O)c1ccc(N2CCOC(C)(C)C2)c(NC(=O)Nc2ccc(Cl)cc2F)c1 (single isomer, unassigned) [Example 1322 E2]
Reply: > 50 nM

Task item: For the record COCC(CC(=O)O)c1ccc(N2CCOC(C)C2)c(Nc2ccc(Cl)cc2)c1 (single isomer, unassigned) [Example 1311 D1] , what value of IC50 is listed for human IDO1 (Homo sapiens)?
Reply: > 50 nM

These data points were gathered from patent US10399933B2.
